# Experimental System: PXR (NR1I2) (Homo sapiens)
# Sequence (O75469 whole entry): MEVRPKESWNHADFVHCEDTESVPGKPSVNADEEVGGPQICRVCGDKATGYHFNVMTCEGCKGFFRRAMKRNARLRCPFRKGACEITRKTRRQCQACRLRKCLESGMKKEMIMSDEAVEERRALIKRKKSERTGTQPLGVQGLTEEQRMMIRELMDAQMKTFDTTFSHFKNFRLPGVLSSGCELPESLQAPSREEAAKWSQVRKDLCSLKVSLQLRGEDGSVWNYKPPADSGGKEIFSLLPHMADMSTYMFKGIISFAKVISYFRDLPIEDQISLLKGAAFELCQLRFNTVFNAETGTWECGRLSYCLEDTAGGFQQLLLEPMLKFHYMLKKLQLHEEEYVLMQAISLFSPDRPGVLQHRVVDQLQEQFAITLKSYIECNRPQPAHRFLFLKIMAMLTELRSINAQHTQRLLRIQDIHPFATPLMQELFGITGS
# Assay Details: Antagonist activity at human PXR in human HepG2 cells co-expressing luciferase gene under control of CYP3A4 promoter assessed as inhibition in rifampicin-induced receptor activation at 10 uM incubated for 24 hrs by luminescence based analysis relative to control
# Type: cell-based
Measured Property: inhibition at 24 h, 10 µM (%)
The response must be a number in % with no trailing unit.

> print(dat)
                           structure.string  measured.value
1  COc1ccc(OC)c(-n2nnc(C(=O)Nc3cc(B4OC(C)(C)C(C)(C)O4)cc(C(C)(C)C)c3)c2C)c1             104

Query: Fill in the blank: the reported inhibition at 24 h, 10 µM of CCCCN(CCCC)c1cc(NC(=O)c2nnn(-c3cc(OC)ccc3OC)c2C)cc(C(C)(C)C)c1 is ____.
Result: 82

Query: # iterate: CNc1cc(NC(=O)c2nnn(-c3cc(OC)ccc3OC)c2C)cc(C(C)(C)C)c1
Result: 109

Query: # iterate: COc1ccc(OC)c(-n2nnc(C(=O)Nc3cc(N(C)C)cc(C(C)(C)C)c3)c2C)c1
Result: 110
